Values were extracted from ChEMBL document CHEMBL4325851.

target: Inhibitor of nuclear factor kappa-B kinase subunit beta (Homo sapiens, UniProt O14920); test: Inhibition of IKKbeta (unknown origin)
Sequence (O14920 whole entry): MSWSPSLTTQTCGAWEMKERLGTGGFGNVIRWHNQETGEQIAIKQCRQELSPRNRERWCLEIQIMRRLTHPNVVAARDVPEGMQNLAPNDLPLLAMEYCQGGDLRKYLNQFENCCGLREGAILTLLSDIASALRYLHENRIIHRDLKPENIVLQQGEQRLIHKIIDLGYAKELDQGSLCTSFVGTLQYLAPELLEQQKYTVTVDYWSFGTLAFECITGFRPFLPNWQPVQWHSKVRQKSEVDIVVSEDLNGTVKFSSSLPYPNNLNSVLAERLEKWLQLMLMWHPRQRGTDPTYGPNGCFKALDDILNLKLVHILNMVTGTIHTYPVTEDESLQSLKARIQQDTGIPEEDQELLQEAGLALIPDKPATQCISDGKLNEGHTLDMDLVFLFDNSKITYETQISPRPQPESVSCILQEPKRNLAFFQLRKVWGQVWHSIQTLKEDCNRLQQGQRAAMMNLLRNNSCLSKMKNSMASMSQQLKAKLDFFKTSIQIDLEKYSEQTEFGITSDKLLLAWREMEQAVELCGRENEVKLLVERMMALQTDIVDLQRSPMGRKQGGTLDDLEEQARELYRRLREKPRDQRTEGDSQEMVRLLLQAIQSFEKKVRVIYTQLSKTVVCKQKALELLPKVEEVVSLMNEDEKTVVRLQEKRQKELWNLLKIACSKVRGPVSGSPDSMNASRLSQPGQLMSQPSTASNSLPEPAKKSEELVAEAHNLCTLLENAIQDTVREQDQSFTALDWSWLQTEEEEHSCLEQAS
measured_quantity: IC50

Recorded IC50 for O=C(Cc1ccc(-c2ccccc2)cc1)Nc1cc(C2CCC2)[nH]n1 , please?
> 10 µM

====

Catalogue of IC50 readings, one per entry.
test system: MIA PaCa-2; assay: Antiproliferative activity against human MIAPaCa2 cells after 72 hrs by prestoblue assay; type: functional, cell-based; conditions: MIA PaCa-2, 72 h
Your answer is read as nM, so omit the unit and give the number.

# returns recorded IC50 (system: MIA PaCa-2) for O=C(Cc1ccc(-c2ccccc2)cc1)Nc1cc(C2CCC2)[nH]n1
247

Now give it for O=C(C/C=C/c1ccccc1)Nc1cc(C2CCC2)[nH]n1 too.
1560

Now give it for O=C(NC1CCNCC1)c1n[nH]cc1NC(=O)c1c(Cl)cccc1Cl too.
411

====

Target: Tyrosine-protein kinase ITK/TSK (Homo sapiens, UniProt Q08881)
Sequence (Q08881 whole entry): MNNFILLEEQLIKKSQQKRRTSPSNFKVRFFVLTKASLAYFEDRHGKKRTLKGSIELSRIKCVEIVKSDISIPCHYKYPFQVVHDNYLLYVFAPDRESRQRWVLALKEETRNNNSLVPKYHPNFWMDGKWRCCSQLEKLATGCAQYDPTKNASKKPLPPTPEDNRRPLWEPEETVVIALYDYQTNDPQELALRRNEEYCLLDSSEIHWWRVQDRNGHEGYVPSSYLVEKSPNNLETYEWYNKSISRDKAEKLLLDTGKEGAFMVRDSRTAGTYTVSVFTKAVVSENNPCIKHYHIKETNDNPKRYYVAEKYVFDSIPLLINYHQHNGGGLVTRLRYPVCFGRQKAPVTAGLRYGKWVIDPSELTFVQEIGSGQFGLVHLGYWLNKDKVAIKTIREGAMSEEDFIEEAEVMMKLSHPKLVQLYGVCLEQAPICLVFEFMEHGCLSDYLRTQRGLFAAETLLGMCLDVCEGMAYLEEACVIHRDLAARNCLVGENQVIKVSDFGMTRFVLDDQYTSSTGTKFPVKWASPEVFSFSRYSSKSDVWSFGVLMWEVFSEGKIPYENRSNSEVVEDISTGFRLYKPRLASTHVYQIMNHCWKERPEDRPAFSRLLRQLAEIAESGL
measured_quantity: IC50

Recorded IC50 for O=C(Cc1ccc(-c2ccccc2)cc1)Nc1cc(C2CCC2)[nH]n1 , please?
> 10 µM

====

molecular target: Serine/threonine-protein kinase PAK 1 (Homo sapiens, UniProt Q13153)
Sequence (Q13153 whole entry): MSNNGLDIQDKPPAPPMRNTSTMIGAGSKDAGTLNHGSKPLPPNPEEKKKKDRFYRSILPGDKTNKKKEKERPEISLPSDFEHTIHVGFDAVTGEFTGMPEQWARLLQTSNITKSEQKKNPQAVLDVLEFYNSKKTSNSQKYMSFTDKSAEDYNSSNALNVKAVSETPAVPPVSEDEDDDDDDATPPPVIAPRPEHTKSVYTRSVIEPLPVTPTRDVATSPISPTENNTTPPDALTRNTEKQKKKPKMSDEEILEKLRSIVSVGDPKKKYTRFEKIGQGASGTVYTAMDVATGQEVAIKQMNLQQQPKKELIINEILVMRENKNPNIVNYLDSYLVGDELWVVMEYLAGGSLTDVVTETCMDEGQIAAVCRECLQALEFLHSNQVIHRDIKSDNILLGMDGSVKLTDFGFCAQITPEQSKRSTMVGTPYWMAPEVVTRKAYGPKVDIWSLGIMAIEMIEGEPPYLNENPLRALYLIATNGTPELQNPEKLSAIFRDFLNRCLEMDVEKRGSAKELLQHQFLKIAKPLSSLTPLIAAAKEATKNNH
measured_quantity: IC50

Recorded IC50 for O=C(Cc1ccc(-c2ccccc2)cc1)Nc1cc(C2CCC2)[nH]n1 , please?
> 10 µM

====

target: Cyclin-dependent kinase 5/CDK5 activator 1 (Homo sapiens, UniProt Q00535); test: Inhibition of CDK5/p35 (unknown origin) in presence of ATP
Sequence (Q00535 whole entry): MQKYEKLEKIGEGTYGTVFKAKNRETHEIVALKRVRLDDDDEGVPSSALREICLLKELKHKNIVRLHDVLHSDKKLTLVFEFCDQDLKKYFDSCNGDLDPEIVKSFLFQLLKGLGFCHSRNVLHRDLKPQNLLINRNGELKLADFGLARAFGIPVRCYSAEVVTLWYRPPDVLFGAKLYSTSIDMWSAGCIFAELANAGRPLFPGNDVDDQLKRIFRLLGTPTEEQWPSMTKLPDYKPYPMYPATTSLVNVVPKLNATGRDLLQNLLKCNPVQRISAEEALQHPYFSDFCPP
Sequence (Q15078 whole entry, further chain): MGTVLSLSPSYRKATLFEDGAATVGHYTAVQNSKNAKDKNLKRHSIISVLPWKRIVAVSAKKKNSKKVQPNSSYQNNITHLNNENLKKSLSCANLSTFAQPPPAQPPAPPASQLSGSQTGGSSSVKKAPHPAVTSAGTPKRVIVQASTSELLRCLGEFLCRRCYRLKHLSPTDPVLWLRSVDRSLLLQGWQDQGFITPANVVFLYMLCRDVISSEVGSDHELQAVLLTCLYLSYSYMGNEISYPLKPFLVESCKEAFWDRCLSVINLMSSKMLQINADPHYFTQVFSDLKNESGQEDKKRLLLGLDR
measured_quantity: IC50 (nM)
Your answer is read as nM, so omit the unit and give the number.

Recorded IC50 for O=C(Cc1ccc(-c2ccccc2)cc1)Nc1cc(C2CCC2)[nH]n1 , please?
23

====

target: High affinity nerve growth factor receptor (Homo sapiens)
Sequence (P04629 whole entry): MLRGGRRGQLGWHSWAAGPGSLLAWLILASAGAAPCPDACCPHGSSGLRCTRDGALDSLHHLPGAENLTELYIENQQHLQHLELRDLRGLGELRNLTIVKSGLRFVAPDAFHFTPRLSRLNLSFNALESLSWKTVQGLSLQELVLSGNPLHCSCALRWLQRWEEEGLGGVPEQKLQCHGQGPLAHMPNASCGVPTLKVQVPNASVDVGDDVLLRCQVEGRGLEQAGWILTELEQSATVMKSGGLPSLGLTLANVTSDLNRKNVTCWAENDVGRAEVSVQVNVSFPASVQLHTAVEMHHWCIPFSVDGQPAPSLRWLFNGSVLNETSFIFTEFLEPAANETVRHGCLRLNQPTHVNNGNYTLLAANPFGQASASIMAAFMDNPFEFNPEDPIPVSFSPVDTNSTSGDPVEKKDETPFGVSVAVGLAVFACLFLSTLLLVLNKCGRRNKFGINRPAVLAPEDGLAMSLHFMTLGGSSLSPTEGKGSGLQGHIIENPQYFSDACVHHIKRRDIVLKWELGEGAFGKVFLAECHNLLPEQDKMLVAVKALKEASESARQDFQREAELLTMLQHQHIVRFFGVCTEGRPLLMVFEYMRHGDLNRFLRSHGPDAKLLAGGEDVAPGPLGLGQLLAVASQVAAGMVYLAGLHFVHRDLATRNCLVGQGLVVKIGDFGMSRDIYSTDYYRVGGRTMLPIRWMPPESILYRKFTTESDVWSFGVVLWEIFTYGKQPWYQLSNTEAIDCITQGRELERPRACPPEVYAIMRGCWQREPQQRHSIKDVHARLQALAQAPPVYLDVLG
measured_quantity: IC50

Recorded IC50 for O=C(Cc1ccc(-c2ccccc2)cc1)Nc1cc(C2CCC2)[nH]n1 , please?
> 10 µM

====

biological target: Cyclin-dependent kinase 2/cyclin E1 (Homo sapiens); test: Inhibition of CDK2/CyclinE (unknown origin) in presence of ATP
measured_quantity: IC50

Recorded IC50 for O=C(Cc1ccc(-c2ccccc2)cc1)Nc1cc(C2CCC2)[nH]n1 , please?
24 nM
